System: HCC-827
Assay: relative viability (nuclei count vs DMSO), 5 days (fraction); higher = more cells survive
Conditions: first compound 0.08 µM
Exercise: for every item that follows, state its recorded relative viability.

// query Please indicate relative viability recorded for C=C1C(=O)O[C@@H](CCCCCCCC)[C@@H]1C(=O)O [C-75] + CS(=O)(=O)N1CCN(Cc2cc3nc(-c4cccc5[nH]ncc45)nc(N4CCOCC4)c3s2)CC1 [Pictilisib] (partner 1 µM)
// result 0.954

// query Tell me relative viability reported for Oc1nc(-c2ccc(C(F)(F)F)cc2)nc2c1CSCC2 [XAV939] + C[C@@H](Oc1cc(-c2cnn(C3CCNCC3)c2)cnc1N)c1c(Cl)ccc(F)c1Cl [Crizotinib] (partner 1 µM)
// result 0.897

// query Read the entry Oc1nc(-c2ccc(C(F)(F)F)cc2)nc2c1CSCC2 [XAV939] + C[C@]1(O)C[C@@H](c2nc(-c3ccc4ccc(-c5ccccc5)nc4c3)c3c(N)nccn32)C1 [Linsitinib] (partner 1 µM) and write its reported relative viability.
// result 0.995

// query Report measured relative viability; entry is Oc1nc(-c2ccc(C(F)(F)F)cc2)nc2c1CSCC2 [XAV939] + Nc1ncn([C@H]2C[C@H](O)[C@@H](CO)O2)c(=O)n1 [Decitabine] (partner 2 µM)
// result 0.327

// query Supply relative viability value. Item: C=C1C(=O)O[C@@H](CCCCCCCC)[C@@H]1C(=O)O [C-75] + COc1cccc2cc(-c3nc([C@H]4CC[C@H](C(=O)O)CC4)n4ncnc(N)c34)[nH]c12 [OSI-027] (partner 0.5 µM)
// result 0.757

// query Kindly indicate its recorded relative viability. Item: Oc1nc(-c2ccc(C(F)(F)F)cc2)nc2c1CSCC2 [XAV939] + Cc1cc(Nc2cc(N3CCN(C)CC3)nc(Sc3ccc(NC(=O)C4CC4)cc3)n2)n[nH]1 [Tozasertib] (partner 0.1 µM)
// result 0.423
